Target: T1, Extracellular domain of human PD1 (huPD1-ECD) (human, UniProt Q15116 25-169, biotinylated in the ligand inhibition assay (sites not given))
T1 construct: Expressed with a hexahistidine tag or as Fc fusion; also called biotinylated PD-1
T1 sequence (Q15116 25-169 limits assumed): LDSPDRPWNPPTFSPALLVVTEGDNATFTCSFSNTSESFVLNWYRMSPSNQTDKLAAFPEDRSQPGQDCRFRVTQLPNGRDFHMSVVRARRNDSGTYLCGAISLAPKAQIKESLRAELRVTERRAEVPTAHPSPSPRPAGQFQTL
Test: SPR ProteOn, captured mAb, huPD1-ECD analyte
The following binders are shown together with reported koff values.
# number only, unit s⁻¹ dropped from output

binder: PD1B187 (antibody, V domains shown, Tested as IgG2sigma; also called PD1H3/PD1L148) VH: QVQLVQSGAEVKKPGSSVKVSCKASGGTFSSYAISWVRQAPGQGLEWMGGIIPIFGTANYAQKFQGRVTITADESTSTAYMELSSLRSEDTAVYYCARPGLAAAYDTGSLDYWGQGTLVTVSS VL: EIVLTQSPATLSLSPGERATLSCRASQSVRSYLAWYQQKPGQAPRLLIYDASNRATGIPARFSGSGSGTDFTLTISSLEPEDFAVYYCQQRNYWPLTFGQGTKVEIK
parameter_measured: koff
assay_value: 0.00278

Continue with the binder presented below.
According to the records, this binder PD1B162 (antibody, human IgG2, kappa, V domains shown, IgG2sigma/kappa; VH 42, VL 52; also called PD1H131/PD1L67) VH: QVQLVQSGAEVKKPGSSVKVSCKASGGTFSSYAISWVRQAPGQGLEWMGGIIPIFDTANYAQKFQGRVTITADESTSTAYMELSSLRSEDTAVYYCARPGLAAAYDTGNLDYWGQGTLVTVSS VL: EIVLTQSPATLSLSPGERATLSCRASQSVDSYLAWYQQKPGQAPRLLIYDASNRATGIPARFSGSGSGTDFTLTISSLEPEDFAVYYCQQREYWPLTFGQGTKVEIKR displays koff of 0.00386
